biological target: recombinant human MMP13 catalytic domain (CD) (Homo sapiens); construct: catalytic domain (CD) construct encompassing residues 20-274 (SWISS-PROT P45452); experiment: MMP-13 catalytic domain FRET enzyme assay; details: recombinant human MMP-13 catalytic domain
Examples of compounds with documented IC50 follow.

compound | IC50
Cc1nc(C(=O)NCc2ccc(F)cc2)cc(C2=NO[C@H]([C@H]3CO[C@@H](CO)CO3)C2)n1 | 10 to 100 nM
Cc1nc(C(=O)NCc2ccc(=O)n(C)c2)cc(C2=NO[C@H]([C@H]3CO[C@H](CO)CO3)C2)n1 | 10 to 100 nM
COc1ccc(CNC(=O)c2cc(C3=NOC(C)(c4ccccc4)C3)ccn2)cc1 (centres unmarked) | > 1000 nM

**Query** Look up IC50 of COc1ccc(CNC(=O)c2cc(C3=NOC(c4ccc(OCCO)cc4)C3)nc(C)n2)cc1 (centres unmarked) and report it.
**Result** 10 to 100 nM

**Query** Look up IC50 of CC(=O)N1CCC(C2CC(c3cc(C(=O)NCc4ccc(F)cc4)nc(C)n3)=NO2)CC1 (centres unmarked) and report it.
**Result** 10 to 100 nM
